biological target: UniProtKB Q13547; conditions: Sf9, dose 10.0 nM, time 15.0 min
Sequence (Q13547 whole entry): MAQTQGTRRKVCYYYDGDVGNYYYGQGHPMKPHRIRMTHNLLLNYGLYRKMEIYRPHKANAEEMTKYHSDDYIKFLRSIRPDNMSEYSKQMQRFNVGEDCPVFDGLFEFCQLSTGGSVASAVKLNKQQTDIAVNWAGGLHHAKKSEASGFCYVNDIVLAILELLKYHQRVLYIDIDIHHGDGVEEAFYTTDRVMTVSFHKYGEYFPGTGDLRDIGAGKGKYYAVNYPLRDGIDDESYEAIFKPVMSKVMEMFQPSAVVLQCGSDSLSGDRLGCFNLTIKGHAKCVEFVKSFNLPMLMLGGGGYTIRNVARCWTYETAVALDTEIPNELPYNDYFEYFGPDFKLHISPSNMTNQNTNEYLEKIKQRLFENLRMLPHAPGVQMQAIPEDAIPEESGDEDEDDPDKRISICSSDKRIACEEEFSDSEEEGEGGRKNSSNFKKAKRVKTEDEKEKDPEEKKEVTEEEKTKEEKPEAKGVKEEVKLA
attribute-measured: inhibition (%)

Please review the following examples before continuing.
{"structure-smiles": "CC(C)S(=O)(=O)c1ccccc1Nc1nc(Nc2ccc(NC(=O)CC(=O)NO)cc2)ncc1Cl", "experimental-value": -10}
{"structure-smiles": "Cc1ccccc1Nc1nc(Nc2ccc(NC(=O)CCCCCCC(=O)NO)cc2)ncc1Cl", "experimental-value": 91}
{"structure-smiles": "Cc1cc(Nc2ncc(Cl)c(Nc3ccccc3S(=O)(=O)C(C)C)n2)ccc1C(=O)NCCCCCC(=O)NO", "experimental-value": 48}
{"structure-smiles": "CC(C)S(=O)(=O)c1ccccc1Nc1nc(Nc2ccc(C(=O)NO)cc2)ncc1Cl", "experimental-value": 0.1}
{"structure-smiles": "Cc1c(Nc2ncc(Cl)c(Nc3ccccc3S(=O)(=O)C(C)C)n2)cccc1C(=O)NCCCCCC(=O)NO", "experimental-value": 7}
{"structure-smiles": "CC(C)S(=O)(=O)c1ccccc1Nc1nc(Nc2cccc(NC(=O)CCCCCC(=O)NO)c2)ncc1Cl", "experimental-value": 55}

(P) CC(C)S(=O)(=O)c1ccccc1Nc1nc(Nc2ccc(C(=O)NCCCCCCC(=O)NO)cc2)ncc1Cl
(Q) CC(C)S(=O)(=O)c1ccccc1Nc1nc(Nc2ccc(C(=O)NCCCC(=O)NO)cc2)ncc1Cl
(R) CC(C)S(=O)(=O)c1ccccc1Nc1nc(Nc2cccc(C(=O)NCCC(=O)NO)c2)ncc1Cl
(S) CC(C)S(=O)(=O)c1ccccc1Nc1nc(Nc2ccc(C(=O)NCCCCC(=O)NO)cc2)ncc1Cl
(T) CC(C)S(=O)(=O)c1ccccc1Nc1nc(Nc2ccc(NC(=O)CCCCCCC(=O)NO)cc2)ncc1F
[Q] In this exercise, place the 5 molecules in ascending sequence of their recorded inhibition. List the labels in the requested order.
[A] Q, R, S, P, T
(Q: -2%, R: -1%, S: 8%, P: 49%, T: 70%)

(1) Cc1cnc(Nc2ccc(NC(=O)CCCCCCC(=O)NO)cc2)nc1Nc1ccccc1S(=O)(=O)C(C)C
(2) CC(C)S(=O)(=O)c1ccccc1Nc1nc(Nc2cccc(C(=O)NCCCCCC(=O)NO)c2)ncc1Cl
(3) CC(C)S(=O)(=O)c1ccccc1Nc1nc(Nc2ccc(NC(=O)CCCCC(=O)NO)cc2)ncc1Cl
(4) CC(C)S(=O)(=O)c1ccccc1Nc1nc(Nc2ccc(C(=O)NCCCCCCC(=O)NO)c(Cl)c2)ncc1Cl
(5) CC(C)S(=O)(=O)c1ccccc1Nc1nc(Nc2ccc(NC(=O)CCCC(=O)NO)cc2)ncc1Cl
[Q] Rank order required: inhibition, descending. List the labels in the requested order.
[A] 1, 2, 4, 5, 3

(1) Cc1cc(C(=O)NCCCCCC(=O)NO)ccc1Nc1ncc(Cl)c(Nc2ccccc2S(=O)(=O)C(C)C)n1
(2) O=C(CCCCCCC(=O)Nc1ccc(Nc2ncc(Cl)c(Nc3ccccc3)n2)cc1)NO
[Q] Name the one with the greater inhibition value, either 1 or 2 as given. The response must carry the label of the picked entry.
[A] 2
(2: 84%, 1: 58%)

(A) CC(C)S(=O)(=O)c1ccccc1Nc1nc(Nc2ccc(C(=O)NCCCCCC(=O)NO)c(Cl)c2)ncc1Cl
(B) O=C(CCCCCCC(=O)Nc1ccc(Nc2ncc(Cl)c(Nc3ccccc3Br)n2)cc1)NO
[Q] Compare A and B and name the one whose reported inhibition is smaller. The response must carry the label of the picked entry.
[A] A
